system: Escherichia coli TOP10; assay: shrunken log2 fold change of peptide-encoding DNA abundance (4.5 h post-induction vs induction); higher = less antimicrobial activity (less host growth inhibition); details: time post-induction: 4.5 h; library: site-saturation at positions 5, 18, 19, 20;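 further: peptides expressed intracellularly from a pBAD plasmid library in pooled LB shake-flask culture, induced with 0.3% L-arabinose, DNA abundance read by NGS, three biological replicates, DESeq2 with apeglm shrinkage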
readout name: shrunken log2 fold change

Solved cases below.
* RRIRHRPPRLPRPRPRPYGQPRP | -0.00191
* RRIRRRPPRLPRPRPRPFMMPRP | -0.173
* RRIRDRPPRLPRPRPRPPVEPRP | -0.0332
* RRIRHRPPRLPRPRPRPIRNPRP | -0.387
* RRIRERPPRLPRPRPRPPMTPRP | -0.163
* RRIRKRPPRLPRPRPRPHCEPRP | 0.177

Field request: shrunken log2 fold change | item: RRIRGRPPRLPRPRPRPPFFPRP
0.851

Consider next the sequence RRIRHRPPRLPRPRPRPVCDPRP in the same way.
-0.41

Consider next the sequence RRIRYRPPRLPRPRPRPPCWPRP in the same way.
0.263

Origin of values: the supplement of paper PMC9112550
